Assay: Toxicity liver stage against HepG2, at 10uM
Format: cell-based
Parameters: test concentration 10 uM, cell line HepG2-A16-CD81EGFP
Conditions: human, HepG2-A16-CD81EGFP cells; read-out: INHIBITION
measured_endpoint: cytotoxicity at 10 µM (%)
One number for each entry, in %.

Look over these answered cases.
Could you tell me which cytotoxicity at 10 µM is on file for `COCC(=O)NC[C@]12COC[C@H]1CN(c1ncc(F)cn1)C2` ? -143

Could you tell me which cytotoxicity at 10 µM is on file for `CCSCc1nc(O)c2nnn(C3CCN(Cc4ccoc4)CC3)c2n1` ? 4.71

Could you tell me which cytotoxicity at 10 µM is on file for Cc1noc(C)c1C(=O)NCC1CCCCN1Cc1ccccc1 (stereo unspecified) ? -4.4

Could you tell me which cytotoxicity at 10 µM is on file for `O=C(COC1CCCC1)N1C[C@@H]2COC[C@]2(COc2cccnc2)C1` ? -99.4

Could you tell me which cytotoxicity at 10 µM is on file for `CCc1nnc2n1CCN(C(=O)c1ccc3nc(C)c(C)nc3c1)C2` ? -10.9

Could you tell me which cytotoxicity at 10 µM is on file for CC1(C)OCC(CNC(=O)c2cnn(-c3cc(Cl)ccc3Cl)c2N)O1 (stereo unspecified) ? 2.84

Could you tell me which cytotoxicity at 10 µM is on file for CC(=O)NC1CCCN(C(=O)Nc2cnc3c(cnn3C(C)C)c2)C1 (stereo unspecified) ? -4.67

Could you tell me which cytotoxicity at 10 µM is on file for `Cc1nc(NS(=O)(=O)c2cc(Br)ccc2C)no1` ? 1.68

Could you tell me which cytotoxicity at 10 µM is on file for `CC(=O)Nc1cc(C(C)(C)C)sc1C#N` ? 10.3

Could you tell me which cytotoxicity at 10 µM is on file for Cc1cc(C)c2nc(C)cc(C(=O)N3CC(O)CO3)c2c1 (stereo unspecified) ? 16.5

Here is the next item to consider.
Could you tell me which cytotoxicity at 10 µM is on file for `N#Cc1nc(COc2ccc3c(c2)OCO3)oc1N1CCCCCC1` ? -34.6

###

Test: Toxicity liver stage against HepG2, at 10uM
Format: cell-based
Parameters: test concentration 10 uM, cell line HepG2-A16-CD81EGFP
Settings: human, HepG2-A16-CD81EGFP cells; read-out: INHIBITION
I'd appreciate it if you could supply cytotoxicity at 10 µM values for the items below.
Answers are plain numbers, in %.

Could you tell me which cytotoxicity at 10 µM is on file for `COc1ccc(OC2CCN(Cc3ccn(C)c(=O)c3)CC2)cc1` ? -5.25

Could you tell me which cytotoxicity at 10 µM is on file for `CCN1CCC(c2nnc(CN3CCCC3)n2C2CC2)CC1` ? -7.3

Could you tell me which cytotoxicity at 10 µM is on file for `N#Cc1c(Cl)nsc1NCc1ccnc(OCC(F)(F)F)c1` ? 12.5

Could you tell me which cytotoxicity at 10 µM is on file for `CCO[C@@H]1CCN(C(=O)c2ccnnc2)[C@@H]1Cc1cnn(C)c1` ? -62.8

Could you tell me which cytotoxicity at 10 µM is on file for CCN1CCN(C(=O)C(C)SC)CC1 (centres undefined) ? 11.4

Record cytotoxicity at 10 µM per entry; entries follow.
1. Cc1cccc(CNC(=O)Nc2ccn(CCCC(=O)N(C)C)n2)c1
2. Cc1nc[nH]c1-c1c(-c2ccccc2)ncn1C1CCNC1 (centres undefined)
3. Cc1nc(-c2ccc(S(=O)(=O)N3CCC=C(F)C3)cc2)co1
4. CC(C)NC(=O)N1CCC2(CCC(=O)N2CCN(C)C)CC1
5. Cc1nccc(C2CN(Cc3cc[nH]n3)CCO2)n1 (centres undefined)
6. CC(C)SCC(=O)N1CCc2c(nc(N(C)C)nc2N(C)C)C1
7. COc1ccc(N2CCN(C(=O)COc3nccc(C)n3)CC2)cc1
8. Cc1cc(C)n(-c2cncc(NCCNS(C)(=O)=O)n2)n1

2
-52.4
13.4
-7.13
-6.92
21.1
-6.16
-3.98

Record cytotoxicity at 10 µM per entry; entries follow.
1. COCC(=O)N1CCC2(CC1)CC(OC)c1ccc(F)cc12 (centres undefined)
2. Cn1nc(C2CCN(C(=O)c3cccs3)CC2)c2cccnc21
3. CN(Cc1ccc(-n2ccnc2)cc1)Cc1ncc[nH]1
4. N#Cc1ccc(CN2CCCC3(Cc4ccccc4CNC3=O)C2)cc1 (centres undefined)
5. CN1CCN(c2cccc(NC(=O)NCc3csc(N(C)C)n3)c2)C1=O
6. O=C1CCc2cc(-c3csc(CCN4CCOC4=O)n3)c(F)cc2N1
7. CCCS(=O)(=O)N1CCC2(CCCC(=O)N2C)CC1
8. CCN(C(=O)Nc1nncs1)C(C)c1cccc(OC)c1 (centres undefined)

1: -134; 2: -8.72; 3: 3.69; 4: 11.8; 5: 0.91; 6: 35.2; 7: 3.29; 8: 4.84

###

Assay: Toxicity liver stage against HepG2, at 10uM
Type: cell-based
Set-up: test concentration 10 uM, cell line HepG2-A16-CD81EGFP
Conditions: human, HepG2-A16-CD81EGFP cells; read-out: INHIBITION
measured_endpoint: cytotoxicity at 10 µM (%)
Numbers only, in %.

Look over these answered cases.
Could you tell me which cytotoxicity at 10 µM is on file for `C[C@H]1C[C@@H]2CCN(C(=O)c3ccncc3)C[C@H]2O1` ? -1.02

Could you tell me which cytotoxicity at 10 µM is on file for `CCn1cc(CN(C)S(=O)(=O)c2cc(Cl)ccc2Cl)cn1` ? 8.6

Could you tell me which cytotoxicity at 10 µM is on file for Cc1cnn(C2CCCN(C(=O)Cc3cn4ccsc4n3)C2)c1 (stereo unspecified) ? -4.89

Could you tell me which cytotoxicity at 10 µM is on file for `CC(C)c1nnc2n1CCN(Cc1ccc3c(c1)OCO3)CC2` ? 1.67

Could you tell me which cytotoxicity at 10 µM is on file for `Cc1c(Cl)cccc1S(=O)(=O)N1CCC(S(=O)(=O)c2nncn2C)CC1` ? 1.06

Could you tell me which cytotoxicity at 10 µM is on file for CCC(C)CN1CCC(n2cc(C3CCCC3)nn2)CC1 (stereo unspecified) ? -2.13

Record cytotoxicity at 10 µM per entry; entries follow.
1. CC(C)C(=O)Nc1cccc(C(=O)Nc2ccccn2)c1
2. CCn1cc(NC(=O)CN2CCC(Oc3ccc(F)cc3)CC2)c(C)n1
3. COc1cc(Oc2ccc(C(F)(F)F)cn2)ccc1CN1CCCC1
4. CN(CCC(=O)N1CCCC(Cc2cccnc2)C1)Cc1cccnc1 (stereo unspecified)

[-2.37, 9.25, 51.5, -9.41]

Could you tell me which cytotoxicity at 10 µM is on file for NC(=O)C(Cc1ccccc1)NS(=O)(=O)Cc1ccccc1F (stereo unspecified) ? -13

###

Test: Toxicity liver stage against HepG2, at 10uM
Format: cell-based
Set-up: test concentration 10 uM, cell line HepG2-A16-CD81EGFP
Settings: human, HepG2-A16-CD81EGFP cells; read-out: INHIBITION
I'd appreciate it if you could supply cytotoxicity at 10 µM values for the items below.
Numbers only, in %.

Look over these answered cases.
Could you tell me which cytotoxicity at 10 µM is on file for `Cc1ccsc1C(=O)N1CCCn2nnc(Cn3cccn3)c2C1` ? 7.37

Could you tell me which cytotoxicity at 10 µM is on file for CC(C)c1nccn1C1CCCN(C(=O)c2ccsc2)C1 (stereo unspecified) ? -5.2

Could you tell me which cytotoxicity at 10 µM is on file for O=C(c1ccc[nH]1)N1CCCC(c2cc(C(F)(F)F)[nH]n2)C1 (stereo unspecified) ? 2.04

Could you tell me which cytotoxicity at 10 µM is on file for `c1ccc(CN2CCc3nnc(CN4CCCCC4)n3CC2)nc1` ? 3.73

Record cytotoxicity at 10 µM per entry; entries follow.
1. CNc1cc2c(nn1)CCN(C(=O)c1ccc3c(c1)CCC3)C2
2. CCC(CC)NC(=O)Cn1cc(-c2ccccc2)cn1
3. CN1CCN(Cc2cnc3n2CCN(C(=O)N2CCCC2)C3)CC1
4. COc1ccc2cc(C(=O)N3CCCCC3CC(N)=O)[nH]c2c1 (stereo unspecified)
5. CC(C)c1nc(C(=O)N2CCc3ccccc3C2C(=O)O)cs1 (stereo unspecified)
6. O=C(Cc1ccccc1)N1CCC(c2nnc(-c3ccccn3)o2)CC1
7. CC(C)NC(=O)C1CCN(c2nc3nc[nH]c(=O)c3s2)CC1

3.15
-0.0581
-72.3
-12.3
9.63
2.83
-3.79

###

Assay: Toxicity liver stage against HepG2, at 10uM
Type: cell-based
Set-up: test concentration 10 uM, cell line HepG2-A16-CD81EGFP
Settings: human, HepG2-A16-CD81EGFP cells; read-out: INHIBITION
measured_endpoint: cytotoxicity at 10 µM
The reply should consist of the numeric value with the unit placed after it.

Look over these answered cases.
Could you tell me which cytotoxicity at 10 µM is on file for Cc1nc(C2CCCN(C(=O)c3sc(C)nc3C)C2)no1 (stereo unspecified) ? -1.96%

Could you tell me which cytotoxicity at 10 µM is on file for Cc1nccn1C1CCCN(C(=O)c2cccc3c2OCO3)C1 (stereo unspecified) ? -14.1%

Could you tell me which cytotoxicity at 10 µM is on file for `CN(C)C(=O)CN1CCN(c2ncccn2)[C@@H]2CS(=O)(=O)C[C@@H]21` ? -3.01%

Could you tell me which cytotoxicity at 10 µM is on file for `CN(C)Cc1ccc(NC(=O)c2nccn3ccnc23)cc1` ? -2.6%

Could you tell me which cytotoxicity at 10 µM is on file for `O=C(NCc1cncc2c1CCN(Cc1ccoc1)C2)C1CC1` ? 4.03%

Here is the next item to consider.
Could you tell me which cytotoxicity at 10 µM is on file for Cc1nc(C)n(CC2CCCN2Cc2cnc(C)s2)n1 (stereo unspecified) ? 0.0757%
